Test Summary: Inhibition of Staphylococcus aureus murI assessed as effect on conversion of D-glutamate to L-glutamate at pH 8.0 by HPLC
Recorded Metric: pIC50
API: returns pIC50 as number; meaning -log10 of concentration in mol/L.

Name the reported pIC50 value associated with the compound CCCCSc1nc(N)c2[nH]c(=O)c(=O)n(Cc3ccccc3)c2n1
5.19

Name the reported pIC50 value associated with the compound CCCCSc1nc(NCCN2CCOCC2)c2[nH]c(=O)c(=O)n(Cc3ccc(F)cc3)c2n1
4.60

Name the reported pIC50 value associated with the compound Nc1nc(SC2CCCC2)nc2c1[nH]c(=O)c(=O)n2Cc1ccccc1
4.28

###

Test Summary: Inhibition of Staphylococcus aureus murI assessed as effect on conversion of D-glutamate to L-glutamate at pH 8.0 by HPLC
Recorded Metric: pIC50
API: returns pIC50 as number; meaning -log10 of concentration in mol/L.

Name the reported pIC50 value associated with the compound CCCCSc1nc(N)c2[nH]c(=O)c(=O)n(Cc3cc(OC)cc(OC)c3)c2n1
4.85

Name the reported pIC50 value associated with the compound CCCCSc1nc(N)c2[nH]c(=O)c(=O)n(Cc3c(F)cccc3F)c2n1
5.51

Name the reported pIC50 value associated with the compound CCCCSc1nc(N2CC(O)C2)c2[nH]c(=O)c(=O)n(Cc3ccc(F)cc3)c2n1
5.40

Name the reported pIC50 value associated with the compound CCCCSc1nc(N)c2[nH]c(=O)c(=O)n(Cc3ccc(F)cc3)c2n1
5.29

Name the reported pIC50 value associated with the compound CCCCSc1nc(NC)c2[nH]c(=O)c(=O)n(Cc3ccc(F)cc3)c2n1
5.42

Name the reported pIC50 value associated with the compound CCCCSc1nc(N2CCN(C)CC2)c2[nH]c(=O)c(=O)n(Cc3ccc(F)cc3)c2n1
4.68

Name the reported pIC50 value associated with the compound Nc1nc(SCc2ccccc2)nc2c1[nH]c(=O)c(=O)n2Cc1ccccc1
5.12

Name the reported pIC50 value associated with the compound Nc1nc(SCCc2ccccc2)nc2c1[nH]c(=O)c(=O)n2Cc1ccccc1
4.96

###

Test Summary: Solubility in Tris buffer at pH 8.0 by nephelometry
Assay type: physicochemical
Recorded Metric: solubility kinetic (µM)
Numeric only. Scale: µM

Name the reported solubility kinetic value associated with the molecule CCCCSc1nc(N2CC(O)C2)c2[nH]c(=O)c(=O)n(Cc3ccc(F)cc3)c2n1
1.6

Name the reported solubility kinetic value associated with the molecule CCCCSc1nc(N)c2[nH]c(=O)c(=O)n(Cc3cc(OC)cc(OC)c3)c2n1
50

Name the reported solubility kinetic value associated with the molecule CCCCSc1nc(NCCN2CCOCC2)c2[nH]c(=O)c(=O)n(Cc3ccc(F)cc3)c2n1
50

Name the reported solubility kinetic value associated with the molecule CCCCSc1nc(N2CCN(C)CC2)c2[nH]c(=O)c(=O)n(Cc3ccc(F)cc3)c2n1
25

Name the reported solubility kinetic value associated with the molecule CCCCSc1nc(N)c2[nH]c(=O)c(=O)n(Cc3ccccc3)c2n1
25

Name the reported solubility kinetic value associated with the molecule CCCCSc1nc(NC)c2[nH]c(=O)c(=O)n(Cc3ccc(F)cc3)c2n1
25

Name the reported solubility kinetic value associated with the molecule CCCCSc1nc(N)c2[nH]c(=O)c(=O)n(Cc3ccc(Cl)c(Cl)c3)c2n1
3.1

Name the reported solubility kinetic value associated with the molecule CCCCSc1nc(N)c2[nH]c(=O)c(=O)n(CCCC)c2n1
25

Name the reported solubility kinetic value associated with the molecule Nc1nc(SC2CCCC2)nc2c1[nH]c(=O)c(=O)n2Cc1ccccc1
12

Name the reported solubility kinetic value associated with the molecule Nc1nc(SCCc2ccccc2)nc2c1[nH]c(=O)c(=O)n2Cc1ccccc1
3

Name the reported solubility kinetic value associated with the molecule CCCCSc1nc(N)c2ncn(Cc3ccc([N+](=O)[O-])cc3)c2n1
10

Name the reported solubility kinetic value associated with the molecule CCCCSc1nc(N)c2[nH]c(=O)c(=O)n(Cc3ccc(F)cc3)c2n1
32

Name the reported solubility kinetic value associated with the molecule CCCCSc1nc(N)c2[nH]c(=O)c(=O)n(Cc3c(F)cccc3F)c2n1
50

Name the reported solubility kinetic value associated with the molecule CCCCSc1nc(N(C)C)c2[nH]c(=O)c(=O)n(Cc3ccc(F)cc3)c2n1
0.8

Name the reported solubility kinetic value associated with the molecule Nc1nc(SCc2ccccc2)nc2c1[nH]c(=O)c(=O)n2Cc1ccccc1
3

meta.source: ChEMBL document CHEMBL1152148
